Data origin: patent US20250270343A1

- Target Entity: T1, full-length untagged human GPNMB expressed on cells (human, UniProt Q14956 23-572)
- T1 sequence: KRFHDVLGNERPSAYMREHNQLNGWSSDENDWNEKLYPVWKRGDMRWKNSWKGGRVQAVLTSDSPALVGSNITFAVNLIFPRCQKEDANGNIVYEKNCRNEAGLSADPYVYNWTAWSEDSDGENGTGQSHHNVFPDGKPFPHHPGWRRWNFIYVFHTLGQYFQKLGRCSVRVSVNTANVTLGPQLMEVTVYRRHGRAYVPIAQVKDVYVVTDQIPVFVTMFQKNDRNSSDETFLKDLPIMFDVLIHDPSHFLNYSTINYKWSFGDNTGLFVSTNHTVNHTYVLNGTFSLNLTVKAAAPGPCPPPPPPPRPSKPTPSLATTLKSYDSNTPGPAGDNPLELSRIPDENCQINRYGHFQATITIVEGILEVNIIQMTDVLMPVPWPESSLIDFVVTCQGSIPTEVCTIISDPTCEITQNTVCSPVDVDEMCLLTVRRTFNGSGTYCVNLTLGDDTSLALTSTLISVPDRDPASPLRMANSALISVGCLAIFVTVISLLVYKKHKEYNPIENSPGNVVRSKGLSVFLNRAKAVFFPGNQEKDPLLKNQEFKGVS
- Measurement Protocol: cell-based or functional assay
Reported Endpoint: CD80 (FoB)

[[record]]
binder = "anti-GPNMB antibody GPN-11 (antibody, human IgG1, V domains shown, chimeric) VH: QVQLQQPGAELVKPGASVKLSCKASGYTFTSYWMHWVKQRPGQGLEWIGEINSSNGRTNYNEKFKTKATLTVDRSSSTAYMQLSSLTSEDSAVYYCARLGYYSGSPYPYYAMDCWGQGTSVTVSS VL: DIQMTQSPASLSVSVGETVTITCRASENIYSNLAWYQQKQGKSPQLLVYAATNLADGVPSRFSGSGSGTQYSLKINSLQSEDFGSYYCQHFWNTPPTFGGGTKLEIK"
reported_endpoint = "CD80 (FoB)"
recorded_value = 1.25

[[record]]
binder = "anti-GPNMB antibody GPN-09 (antibody, human IgG1, V domains shown, chimeric) VH: QVQLQQSGAELVKPGASVKLSCKASGYTFTSYYIYWVKQRPGQGLEWIGEINPSNGGTYFNEKFKNKATLTVDKSSSTAYMQLSSLTSEDSAVYYCTRGGNYYAYWGQGTLVTVSA VL: DIQMTQSPSSLSASLGERVSLTCRASQEISGHLGWLQQKPDGTIKRLIYAALTLDSGVPKRFSGSRSGSDYSLTISSLESEDFADYYCLQYASYPYTFGGGTKLEIK"
reported_endpoint = "CD80 (FoB)"
recorded_value = 1.19

[[record]]
binder = "anti-GPNMB antibody GPN-25 (antibody, human IgG1, V domains shown, chimeric) VH: EVQLQQSGPELVKPGASVKISCKASGYSFTGYYMNWVKQSPEKSLEWIGEINPGSGITTYNQKFKAKATLTVDKSSSTAYLQLKSLTSEDSAVYYCARPASWFAYWGQGTLVTVSA VL: DIQMTQSPSSLSASLGERVSFICRASQEISGHLSWLQQKPDGTIKRLIYAASTLDSGVPKRFSGSRSGSDYSLTISSLESEDFADYYCLQYASYPYTFGGGTKLEIK"
reported_endpoint = "CD80 (FoB)"
recorded_value = 1.41

